Would you mind telling me the reported inhibition at 50 µM of each entry?
- TARGET ENTITY: Recombinant pure human SQSTM1 protein (Homo sapiens, UniProt Q13501)
- Construct: purchased Origene
- Sequence (Q13501 whole entry): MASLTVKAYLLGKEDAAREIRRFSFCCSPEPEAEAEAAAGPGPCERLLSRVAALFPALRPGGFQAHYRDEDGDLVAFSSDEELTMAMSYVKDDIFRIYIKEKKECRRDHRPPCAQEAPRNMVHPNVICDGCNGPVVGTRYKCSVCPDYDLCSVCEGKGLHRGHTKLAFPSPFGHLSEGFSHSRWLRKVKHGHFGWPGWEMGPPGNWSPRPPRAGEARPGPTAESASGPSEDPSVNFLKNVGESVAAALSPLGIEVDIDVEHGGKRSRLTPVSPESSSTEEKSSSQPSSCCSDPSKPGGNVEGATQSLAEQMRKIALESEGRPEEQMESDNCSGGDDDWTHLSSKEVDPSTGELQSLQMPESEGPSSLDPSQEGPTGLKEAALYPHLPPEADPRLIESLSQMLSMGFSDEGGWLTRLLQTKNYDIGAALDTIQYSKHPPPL
- EXPERIMENTAL PROTOCOL: Inhibition of IA-Rhodamine labeling of SQSTM1 (gel-based, densitometry)
- Format: binding
- APPLIED CONDITIONS: 50 μM of test compound (initial screen); 30 min at 37° C., then 100 nM IA-Rhodamine 1 hour; inhibition of target labeling by densitometry
Provide only the numeric value, understood in %.

Need inhibition at 50 µM of O=C(CCl)N1CCc2nccn2CC1 , thanks.
50

Need inhibition at 50 µM of CC1(CNC(=O)OCc2ccccc2)CCCCN(C(=O)CCl)C1 (stereo not drawn) , thanks.
70

Need inhibition at 50 µM of CC1(O)CCCCN(C(=O)CCl)C1 (stereo not drawn) , thanks.
20

Need inhibition at 50 µM of CC(C)(C)OC(=O)N1CC2CC1CN(C(=O)CCl)C2 (stereo not drawn) , thanks.
18

Need inhibition at 50 µM of O=C(CCl)N1CCCN(c2ccc(F)cn2)CC1 , thanks.
20

Need inhibition at 50 µM of O=C(CCl)N1CCCC(O)(C(F)(F)F)CC1 (stereo not drawn) , thanks.
32

Need inhibition at 50 µM of O=C(CCl)N1CCCSCC1 , thanks.
33

Need inhibition at 50 µM of CC1CN(C(=O)CCl)CCCC1CNC(=O)OCc1ccccc1 (stereo not drawn) , thanks.
59

Need inhibition at 50 µM of O=C(CCl)N(Cc1ccccc1)C1CCCC[C@H]1CO (stereo in doubt) , thanks.
58

Need inhibition at 50 µM of CC(C)N(C(=O)CCl)C1CCCNCC1 (stereo not drawn) , thanks.
22

Need inhibition at 50 µM of COC(=O)c1ccc(CN(C(=O)CCl)C2CCNCC2)[nH]1 , thanks.
7

Need inhibition at 50 µM of O=C1CCN(C(=O)CCl)CCC1F (stereo not drawn) , thanks.
36

Need inhibition at 50 µM of CC(C)(C)OC(=O)N1CCN(C(=O)CCl)CC2(CCCC(=O)N2)C1 (stereo not drawn) , thanks.
21

Need inhibition at 50 µM of CC1CCN(C(=O)CCl)CCC1CNC(=O)OCc1ccccc1 (stereo not drawn) , thanks.
54

Need inhibition at 50 µM of CC(C)(C)OC(=O)N1CCCC12CCCN(C(=O)CCl)CC2 (stereo not drawn) , thanks.
58

Need inhibition at 50 µM of O=C(CCl)N1CCC(O)C(F)CC1 (stereo not drawn) , thanks.
7

Need inhibition at 50 µM of COC(=O)c1ccc(CN(C(=O)CCl)C2CCN(C(=O)OC(C)(C)C)CC2)[nH]1 , thanks.
64

Need inhibition at 50 µM of O=C(CCl)N1CC2CNC(C2)C1 (stereo not drawn) , thanks.
38

Need inhibition at 50 µM of CC1(F)CCCN(C(=O)CCl)CC1 (stereo not drawn) , thanks.
34

Need inhibition at 50 µM of CCOC(=O)C1(C)CCCCN(C(=O)CCl)C1 (stereo not drawn) , thanks.
31

Need inhibition at 50 µM of CCOC(=O)c1cnc2n1CCN(C(=O)CCl)CC2 , thanks.
46

Need inhibition at 50 µM of CCOC(=O)c1ncn2c1CN(C(=O)CCl)CCC2 , thanks.
52

Need inhibition at 50 µM of O=C1CC(N(Cc2ccccc2)C(=O)CCl)CN1Cc1ccccc1 (stereo not drawn) , thanks.
57

Need inhibition at 50 µM of O=C(CCl)N1CCCCC(F)(F)C1 , thanks.
83

Need inhibition at 50 µM of CC1(F)CCCCN(C(=O)CCl)C1 (stereo not drawn) , thanks.
38

Need inhibition at 50 µM of O=C(CCl)N1CCC(F)C(F)(F)CC1 (stereo not drawn) , thanks.
25

Need inhibition at 50 µM of CC1(O)CCCN(C(=O)CCl)CC1 (stereo not drawn) , thanks.
9

Need inhibition at 50 µM of O=C(NC1CCCN(C(=O)CCl)CC1)OCc1ccccc1 (stereo not drawn) , thanks.
31

Need inhibition at 50 µM of CC(C)(C)OC(=O)N1CCCCC2(CCCCN(C(=O)CCl)C2)C1 (stereo not drawn) , thanks.
82

Need inhibition at 50 µM of O=C(CCl)N1CCCC2(CCCN2)CC1 (stereo not drawn) , thanks.
22

Need inhibition at 50 µM of CC(C)(C)OC(=O)NC1CCCCN(C(=O)CCl)C1 (stereo not drawn) , thanks.
30

Need inhibition at 50 µM of COC(=O)N1CCCN(C(=O)CCl)CC1 , thanks.
9

Need inhibition at 50 µM of CC1CCN(C(=O)CCl)CCC1=O (stereo not drawn) , thanks.
32

Sourced from patent US20220387411A1
